Every entry's value here was drawn from patent US10807960B2.

# System: E. coli TG1
# TEST_PROTOCOL: static peg (Calgary Biofilm Device) anti-biofilm assay, crystal violet and OD600
# CONDITION: read-out: BIC50; biofilm formation, 37° C.
MEASURE: IC50

> print(dat)
                                smiles.data  observed
1  Brc1ccc(-c2cnc(NCCn3cc(C4CC4)nn3)[nH]2)cc1   ~192 µM
2           CCCCCCCCn1c(-c2ccc(Cl)cc2)cnc1N   ~6.5 µM
3         Clc1ccc(-c2cnc(NC3CCCC3)[nH]2)cc1  ~45.7 µM
